Target: T1, N-terminal SH3 domain of Drosophila Drk (Drk-NSH3) (Drosophila, UniProt Q08012 1-59)
T1 construct: Downstream receptor kinase (Drk), Drosophila homologue of GRB2, 211 residues; N-terminal SH3 domain, residues 1-59; Isolated domain is in equilibrium between a folded and an unfolded state; source: E. coli BL21 (DE3) star, pET-3a, uniformly 15N-labelled, purified (DEAE sepharose, Superdex 75, Resource Q)
T1 sequence (Q08012 1-59): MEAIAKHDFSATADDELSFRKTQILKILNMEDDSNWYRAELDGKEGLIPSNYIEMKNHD
Assay: NMR titration; 2D 1H-15N HSQC of 15N-labelled Drk-NSH3 (0.3 mM), peptide added stepwise up to protein:peptide 1:8; 20 mM KH2PO4/K2HPO4 pH 7.4, 100 mM KCl, 1 mM DTT, 0.05% NaN3, 10% D2O; 25 °C; CSPs fitted to a conformational selection model (Kd and Kf), bootstrap 1000 iterations
Conditions: both partners purified
propertyMeasured: Kd (µM)
The answer is to be given in µM; state only the numeric part.

Look up and state reported Kd for GPPSVDRKCKPNA (Daughter of Sevenless (Dos), Drosophila, proline-rich motif PxxxRxxKP in the C-terminal unstructured region, residues 690-702; Thirteen residues; the nine-residue peptide of the earlier study extended by two residues at each end; also called "longer" Dos-S2; source: synthetic peptide, bought: Eurofins Genomics) [Dos-S2 peptide (Daughter of Sevenless residues 690-702)] 242

These measurements were taken from paper PMC10532153.
